We begin with a simple list: items and their reported Tmax.
measurementProtocol: In vivo pharmacokinetic experiment in mice
conditionLabel: male, mouse, po; C57 mice, 20 mg/kg p.o., plasma
Protocol: Healthy male C57 mice were randomly divided into groups with 3 mice in each group, and the test compounds were administrated intragastrically or by intravenous injection. See Table 6 below for specific arrangements: Each test compound was dissolved in physiological saline to prepare a certain concentration of solution for administration. One day before administration, the mice were fasted and allowed to drink freely for 12-14 h. The mice were fed 4 h after administration. […]
Form entry: value (min) — number only.

// worked examples, Tmax included
Exam item: Item Cl.N[C@@]1(c2cccc(OC(F)(F)F)c2F)CCC[C@@H](O)C1=O has what recorded Tmax?
Marked response: 5

Exam item: Item Cl.N[C@]1(c2ccc(C(F)(F)F)cc2)CCC[C@H](O)C1=O has what recorded Tmax?
Marked response: 5

Exam item: Item Cl.N[C@@]1(c2ccccc2Cl)CCC[C@@H](O)C1=O [(2R,6R)-HNK, (2R, 6R)-HNK, reference compound] has what recorded Tmax?
Marked response: 5

New cases:
Exam item: Item Cl.N[C@@]1(c2ccc(C(F)(F)F)cc2)CCC[C@@H](O)C1=O has what recorded Tmax?
Marked response: 6.6

###

measurementProtocol: In vivo pharmacokinetic experiment in mice
conditionLabel: male, mouse, plasma, iv; C57 mice, 5 mg/kg i.v.
Method: Healthy male C57 mice were randomly divided into groups with 3 mice in each group, and the test compounds were administrated intragastrically or by intravenous injection. See Table 6 below for specific arrangements: Each test compound was dissolved in physiological saline to prepare a certain concentration of solution for administration. One day before administration, the mice were fasted and allowed to drink freely for 12-14 h. The mice were fed 4 h after administration. […]
experimentalEndpoint: clearance (mL/min/kg)
Form entry: value (mL/min/kg) — number only.

// worked examples, clearance included
Exam item: Item Cl.N[C@@]1(c2ccccc2Cl)CCC[C@@H](O)C1=O [(2R,6R)-HNK, (2R, 6R)-HNK, reference compound] has what recorded clearance?
Marked response: 40.7

Exam item: Item Cl.N[C@]1(c2ccc(C(F)(F)F)cc2)CCC[C@H](O)C1=O has what recorded clearance?
Marked response: 13.5

Exam item: Item Cl.N[C@@]1(c2ccc(C(F)(F)F)cc2)CCC[C@@H](O)C1=O has what recorded clearance?
Marked response: 27.2

New cases:
Exam item: Item Cl.N[C@@]1(c2cccc(OC(F)(F)F)c2F)CCC[C@@H](O)C1=O has what recorded clearance?
Marked response: 17.2

###

measurementProtocol: In vivo pharmacokinetic experiment in mice
conditionLabel: C57 mice, 20 mg/kg p.o., plasma
experimentalEndpoint: AUC0-t (ngh/mL)
Form entry: value (ngh/mL) — number only.

// worked examples, AUC0-t included
Exam item: Item Cl.N[C@@]1(c2ccc(C(F)(F)F)cc2)CCC[C@@H](O)C1=O has what recorded AUC0-t?
Marked response: 13548

Exam item: Item Cl.N[C@]1(c2ccc(C(F)(F)F)cc2)CCC[C@H](O)C1=O has what recorded AUC0-t?
Marked response: 17539

Exam item: Item Cl.N[C@@]1(c2ccccc2Cl)CCC[C@@H](O)C1=O [(2R,6R)-HNK, (2R, 6R)-HNK, reference compound] has what recorded AUC0-t?
Marked response: 5589

New cases:
Exam item: Item Cl.N[C@@]1(c2cccc(OC(F)(F)F)c2F)CCC[C@@H](O)C1=O has what recorded AUC0-t?
Marked response: 12708

###

measurementProtocol: In vivo pharmacokinetic experiment in rats
conditionLabel: male, rat, po; SD rats, 100 mg/kg p.o., plasma
experimentalEndpoint: MRT (h)
Form entry: value (h) — number only.

Exam item: Item Cl.N[C@@]1(c2ccc(C(F)(F)F)cc2)CCC[C@@H](O)C1=O [Compound 50] has what recorded MRT?
Marked response: 5.47

###

measurementProtocol: In vivo pharmacokinetic experiment in mice
conditionLabel: C57 mice, 20 mg/kg p.o. vs 5 mg/kg i.v.
experimentalEndpoint: F (%)
Form entry: value (%) — number only.

// worked examples, F included
Exam item: Item Cl.N[C@]1(c2ccc(C(F)(F)F)cc2)CCC[C@H](O)C1=O [Compound 51] has what recorded F?
Marked response: 68.0

Exam item: Item Cl.N[C@@]1(c2ccccc2Cl)CCC[C@@H](O)C1=O [(2R,6R)-HNK, (2R, 6R)-HNK, reference compound] has what recorded F?
Marked response: 66.8

Exam item: Item Cl.N[C@@]1(c2cccc(OC(F)(F)F)c2F)CCC[C@@H](O)C1=O [Compound 64] has what recorded F?
Marked response: 66.2

Moving on to the next molecule.
Exam item: Item Cl.N[C@@]1(c2ccc(C(F)(F)F)cc2)CCC[C@@H](O)C1=O [Compound 50] has what recorded F?
Marked response: 112

###

measurementProtocol: In vivo pharmacokinetic experiment in mice
conditionLabel: male, mouse, plasma, iv; C57 mice, 5 mg/kg i.v.; read-out: Vss
experimentalEndpoint: Vd (L/kg)
Form entry: value (L/kg) — number only.

// worked examples, Vd included
Exam item: Item Cl.N[C@@]1(c2ccc(C(F)(F)F)cc2)CCC[C@@H](O)C1=O has what recorded Vd?
Marked response: 2.1

Exam item: Item Cl.N[C@@]1(c2ccccc2Cl)CCC[C@@H](O)C1=O [(2R,6R)-HNK, (2R, 6R)-HNK, reference compound] has what recorded Vd?
Marked response: 0.94

New cases:
Exam item: Item Cl.N[C@]1(c2ccc(C(F)(F)F)cc2)CCC[C@H](O)C1=O has what recorded Vd?
Marked response: 0.98

Exam item: Item Cl.N[C@@]1(c2cccc(OC(F)(F)F)c2F)CCC[C@@H](O)C1=O has what recorded Vd?
Marked response: 0.91

###

measurementProtocol: Distribution in mouse brain tissue
Assay type: in vivo, C57 mice
conditionLabel: male, brain, po; C57 mouse, 20 mg/kg p.o. (intragastrically), 10 min
We begin with a simple list: items and their reported concentration at 10 min.
Form entry: value (ng/g) — number only.

Exam item: Item Cl.N[C@@]1(c2ccc(C(F)(F)F)cc2)CCC[C@@H](O)C1=O [Compound 50, hydrochloride] has what recorded concentration at 10 min?
Marked response: 19400

New cases:
Exam item: Item Cl.N[C@]1(c2ccc(C(F)(F)F)cc2)CCC[C@H](O)C1=O [Compound 51, hydrochloride] has what recorded concentration at 10 min?
Marked response: 23500

###

measurementProtocol: In vivo pharmacokinetic experiment in rats
conditionLabel: male, rat, plasma, iv; SD rats, 10 mg/kg i.v.; read-out: Vss
Method: Healthy male SD rats were randomly divided into groups with 3 rats in each group, and the test compounds were administrated intragastrically or by intravenous injection. See Table 8 below for specific arrangements: Each test compound was dissolved in physiological saline to prepare a certain concentration of solution for administration. One day before administration, the rats were fasted and allowed to drink freely for 12-14 h. The rats were fed 4 h after administration. […]
experimentalEndpoint: Vd (L/kg)
Form entry: value (L/kg) — number only.

Exam item: Item Cl.N[C@@]1(c2ccc(C(F)(F)F)cc2)CCC[C@@H](O)C1=O has what recorded Vd?
Marked response: 4.03

###

measurementProtocol: In vivo pharmacokinetic experiment in mice
conditionLabel: male, mouse, iv; C57 mice, 5 mg/kg i.v., plasma
We begin with a simple list: items and their reported half-life.
Form entry: value (h) — number only.

Exam item: Item Cl.N[C@@]1(c2ccc(C(F)(F)F)cc2)CCC[C@@H](O)C1=O has what recorded half-life?
Marked response: 1.67

Exam item: Item Cl.N[C@]1(c2ccc(C(F)(F)F)cc2)CCC[C@H](O)C1=O has what recorded half-life?
Marked response: 1.79

Exam item: Item Cl.N[C@@]1(c2ccccc2Cl)CCC[C@@H](O)C1=O [(2R,6R)-HNK, (2R, 6R)-HNK, reference compound] has what recorded half-life?
Marked response: 0.34

New cases:
Exam item: Item Cl.N[C@@]1(c2cccc(OC(F)(F)F)c2F)CCC[C@@H](O)C1=O has what recorded half-life?
Marked response: 0.87

###

measurementProtocol: In vivo pharmacokinetic experiment in rats
conditionLabel: male, rat, po; SD rats, 20 mg/kg p.o., plasma
experimentalEndpoint: half-life (h)
Form entry: value (h) — number only.

Exam item: Item Cl.N[C@]1(c2ccc(C(F)(F)F)cc2)CCC[C@H](O)C1=O has what recorded half-life?
Marked response: 4.74

###

We begin with a simple list: items and their reported half-life.
measurementProtocol: In vivo pharmacokinetic experiment in mice
conditionLabel: male, mouse, po; C57 mice, 20 mg/kg p.o., plasma
Form entry: value (h) — number only.

Exam item: Item Cl.N[C@@]1(c2ccccc2Cl)CCC[C@@H](O)C1=O [(2R,6R)-HNK, (2R, 6R)-HNK, reference compound] has what recorded half-life?
Marked response: 0.93

Exam item: Item Cl.N[C@]1(c2ccc(C(F)(F)F)cc2)CCC[C@H](O)C1=O has what recorded half-life?
Marked response: 4.09

Exam item: Item Cl.N[C@@]1(c2cccc(OC(F)(F)F)c2F)CCC[C@@H](O)C1=O has what recorded half-life?
Marked response: 3.98

New cases:
Exam item: Item Cl.N[C@@]1(c2ccc(C(F)(F)F)cc2)CCC[C@@H](O)C1=O has what recorded half-life?
Marked response: 4.16
